Attribution: patent US20250114356A1

Target: wildtype LRRK2 (Homo sapiens, UniProt Q5S007)
Construct: expressed in transfected cells; host or cells: HEK293 (ATCC CRL-1573), transient transfection, ubiquitin promoter
Sequence (Q5S007 whole entry): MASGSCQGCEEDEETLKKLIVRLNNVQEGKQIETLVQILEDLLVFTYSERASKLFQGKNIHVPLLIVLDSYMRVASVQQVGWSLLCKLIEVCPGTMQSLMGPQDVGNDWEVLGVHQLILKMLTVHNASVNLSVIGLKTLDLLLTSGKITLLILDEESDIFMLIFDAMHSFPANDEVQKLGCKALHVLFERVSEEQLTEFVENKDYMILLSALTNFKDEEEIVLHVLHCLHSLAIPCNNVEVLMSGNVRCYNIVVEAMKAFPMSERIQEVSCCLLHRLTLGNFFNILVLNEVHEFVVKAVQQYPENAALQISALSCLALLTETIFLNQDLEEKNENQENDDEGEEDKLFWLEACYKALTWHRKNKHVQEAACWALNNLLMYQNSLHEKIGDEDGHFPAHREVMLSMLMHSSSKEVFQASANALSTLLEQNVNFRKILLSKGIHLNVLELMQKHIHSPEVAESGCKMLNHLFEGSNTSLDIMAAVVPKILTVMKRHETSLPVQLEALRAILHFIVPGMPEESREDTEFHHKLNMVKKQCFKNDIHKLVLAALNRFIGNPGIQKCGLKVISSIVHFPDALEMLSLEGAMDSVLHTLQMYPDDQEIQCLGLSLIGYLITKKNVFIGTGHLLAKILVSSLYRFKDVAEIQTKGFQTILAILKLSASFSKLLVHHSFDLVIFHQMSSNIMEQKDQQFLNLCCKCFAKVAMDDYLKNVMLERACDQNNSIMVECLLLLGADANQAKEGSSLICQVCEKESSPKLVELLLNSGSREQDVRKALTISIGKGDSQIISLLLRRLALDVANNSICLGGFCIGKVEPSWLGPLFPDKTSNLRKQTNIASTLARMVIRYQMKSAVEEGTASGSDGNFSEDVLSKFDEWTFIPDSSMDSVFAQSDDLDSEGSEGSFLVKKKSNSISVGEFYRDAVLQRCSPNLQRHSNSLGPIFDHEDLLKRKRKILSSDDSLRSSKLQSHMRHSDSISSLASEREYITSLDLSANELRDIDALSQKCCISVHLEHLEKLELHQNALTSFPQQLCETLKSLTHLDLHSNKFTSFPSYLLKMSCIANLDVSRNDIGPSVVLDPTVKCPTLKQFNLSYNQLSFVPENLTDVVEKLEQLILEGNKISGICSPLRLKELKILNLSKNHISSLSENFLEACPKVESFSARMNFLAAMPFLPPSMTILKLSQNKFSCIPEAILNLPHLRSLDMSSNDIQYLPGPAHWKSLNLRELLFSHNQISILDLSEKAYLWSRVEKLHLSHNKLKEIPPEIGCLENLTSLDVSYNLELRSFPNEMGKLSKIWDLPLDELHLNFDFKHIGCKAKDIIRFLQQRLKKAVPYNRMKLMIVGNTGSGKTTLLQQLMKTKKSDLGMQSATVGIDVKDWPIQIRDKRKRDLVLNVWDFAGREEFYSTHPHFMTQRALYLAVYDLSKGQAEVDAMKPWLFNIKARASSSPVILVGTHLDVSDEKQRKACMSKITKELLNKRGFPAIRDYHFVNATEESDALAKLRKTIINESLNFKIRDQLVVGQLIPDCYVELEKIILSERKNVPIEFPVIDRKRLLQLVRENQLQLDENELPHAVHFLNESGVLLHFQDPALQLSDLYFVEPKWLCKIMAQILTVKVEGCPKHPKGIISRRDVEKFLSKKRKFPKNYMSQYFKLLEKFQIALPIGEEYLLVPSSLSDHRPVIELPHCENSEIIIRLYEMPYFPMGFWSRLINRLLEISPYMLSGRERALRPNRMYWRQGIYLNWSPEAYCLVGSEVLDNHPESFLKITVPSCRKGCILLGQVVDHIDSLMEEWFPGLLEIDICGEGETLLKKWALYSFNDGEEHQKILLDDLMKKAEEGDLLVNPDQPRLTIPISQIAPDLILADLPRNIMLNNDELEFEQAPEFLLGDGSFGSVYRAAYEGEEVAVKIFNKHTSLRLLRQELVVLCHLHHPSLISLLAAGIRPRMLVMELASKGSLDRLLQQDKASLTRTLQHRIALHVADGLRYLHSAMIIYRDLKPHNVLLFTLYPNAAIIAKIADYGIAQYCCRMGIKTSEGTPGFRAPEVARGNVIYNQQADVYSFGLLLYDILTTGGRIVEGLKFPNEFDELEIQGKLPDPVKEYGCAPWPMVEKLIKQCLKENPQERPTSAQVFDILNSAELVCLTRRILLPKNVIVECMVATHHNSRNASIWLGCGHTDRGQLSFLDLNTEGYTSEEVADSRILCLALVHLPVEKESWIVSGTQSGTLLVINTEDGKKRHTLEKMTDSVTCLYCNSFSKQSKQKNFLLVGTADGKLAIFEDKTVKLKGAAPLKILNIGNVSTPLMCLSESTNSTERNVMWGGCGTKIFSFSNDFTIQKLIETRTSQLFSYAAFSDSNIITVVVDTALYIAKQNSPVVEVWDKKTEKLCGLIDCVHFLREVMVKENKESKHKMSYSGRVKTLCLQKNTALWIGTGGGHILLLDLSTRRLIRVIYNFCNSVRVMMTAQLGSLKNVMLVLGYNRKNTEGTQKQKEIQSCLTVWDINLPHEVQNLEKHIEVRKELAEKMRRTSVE
Experiment: LRRK2 degradation assay, wildtype LRRK2-HiBit expressed from plasmid in HEK293 cells
Type: cell-based
Conditions: HEK293 cells transfected with HiBit-tagged wildtype LRRK2, 24 hours compound incubation; read-out: **WT Dmax (%)
Protocol: The assay measures the degradation of wildtype and G2019S LRRK2 tagged with a HiBit tag on the C-terminus of the protein that was expressed from a mammalian expression vector, driven by the ubiquitin promoter in HEK293 cells. Each compound dose-response was repeated on two separate days, on three separate plates each day. […] While the transfection mixes were incubating, HEK293 cells (acquired from ATCC; ATCC CRL-1573) were harvested with trypsin. […] The cells were mixed well and counted. […]
metric: Dmax

Below, each entry is followed by its recorded Dmax result.
| molecule | target or test system | Dmax |
| --- | --- | --- |
| C[C@@H]1CN(c2cc(-c3n[nH]c4ccc(OC5(C)CC5)cc34)ncn2)C[C@H](C)N1CCOCCN1CCN(c2ccc3c(c2)C(=O)N(C2CCC(=O)NC2=O)C3=O)CC1 (stereo partly drawn) | wildtype LRRK2 (Homo sapiens, UniProt Q5S007) | ≥ 70% |
| CC(C)Oc1cc2c(-c3cc(N4CCN(CCOCCOCCOCCOc5ccc6c(c5)C(=O)N(C5CCC(=O)NC5=O)C6=O)[C@@H](C)C4)ncn3)n[nH]c2cc1F (stereo partly drawn) | wildtype LRRK2 (Homo sapiens, UniProt Q5S007) | < 50% |

Known value: wildtype LRRK2 (Homo sapiens, UniProt Q5S007) Dmax of the molecule C[C@H]1CN(c2cc(-c3n[nH]c4ccc(OC5(C)CC5)cc34)ccn2)CCN1CCOCCOCCOCCOc1ccc2c(c1)C(=O)N(C1CCC(=O)NC1=O)C2=O (stereo partly drawn) equals ≥ 70%

---

Target: wildtype LRRK2 (Homo sapiens, UniProt Q5S007)
Construct: expressed in transfected cells; host or cells: HEK293 (ATCC CRL-1573), transient transfection, ubiquitin promoter
Assay: LRRK2 degradation assay, wildtype LRRK2-HiBit expressed from plasmid in HEK293 cells
Format: cell-based
Conditions: HEK293 cells transfected with HiBit-tagged wildtype LRRK2, 24 hours compound incubation; read-out: **WT Dmax (%)
Field: Dmax. Provide a value for each of the compounds that follow.

| compound | metric | obs value |
| --- | --- | --- |
| C[C@H]1CN(c2cc(-c3n[nH]c4ccc(OC5(C)CC5)cc34)ncn2)CCN1CCOCCOc1ccc2c(c1)C(=O)N(C1CCC(=O)NC1=O)C2=O (some centres unmarked) [compound 2] | Dmax | 50 to 70% |

Take each entry in turn and give its Dmax.
1. CC(C)Oc1ccc2[nH]nc(-c3cc(N4C[C@@H](C)N(CCOCCOCCOCCOc5ccc6c(c5)C(=O)N(C5CCC(=O)NC5=O)C6=O)[C@@H](C)C4)ncn3)c2c1 (some centres unmarked) [compound 10]
2. C[C@H]1CN(c2cc(-c3n[nH]c4ccc(OC5(C)CC5)cc34)ncn2)CCN1CCN1CCC(CN2CCN(c3ccc4c(c3)C(=O)N(C3CCC(=O)NC3=O)C4=O)CC2)CC1 (some centres unmarked) [compound 29]
3. CC(C)Oc1ccc2[nH]nc(-c3cc(N4CCN(CCN(C)CCCN5CCN(c6ccc7c(c6)C(=O)N(C6CCC(=O)NC6=O)C7=O)CC5)[C@@H](C)C4)ncn3)c2c1 (some centres unmarked) [compound 36]
4. CC(C)Oc1ccc2[nH]nc(-c3cc(N4CCN(CC5CCN(CC6CCN(c7ccc8c(c7)C(=O)N(C7CCC(=O)NC7=O)C8=O)CC6)CC5)[C@@H](C)C4)ncn3)c2c1 (some centres unmarked) [compound 25]
5. CC(C)Oc1ccc2[nH]nc(-c3cc(N4CCN(CCOCCOCCOCCOc5ccc6c(c5)C(=O)N(C5CCC(=O)NC5=O)C6=O)[C@@H](C)C4)ncn3)c2c1 (some centres unmarked) [compound 9]
6. CC(C)Oc1ccc2[nH]nc(-c3cc(N4CCN(CCN5CC(CCN6CCN(c7ccc8c(c7)C(=O)N(C7CCC(=O)NC7=O)C8=O)CC6)C5)CC4)ncn3)c2c1 (centres unmarked) [compound 46]

1. 50 to 70%
2. ≥ 70%
3. ≥ 70%
4. ≥ 70%
5. < 50%
6. 50 to 70%

Take each entry in turn and give its Dmax.
1. CC(C)Oc1ccc2[nH]nc(-c3cc(N4CCN(CCN5CCC(CC6CCN(c7ccc8c(c7)C(=O)N(C7CCC(=O)NC7=O)C8=O)CC6)CC5)CC4)ncn3)c2c1 (centres unmarked) [compound 51]
2. C[C@@H]1CN(c2cc(-c3n[nH]c4ccc(OC5(C)CC5)cc34)ncn2)C[C@H](C)N1CCOCCOCCOc1ccc2c(c1)C(=O)N(C1CCC(=O)NC1=O)C2=O (some centres unmarked) [compound 6]
3. C[C@H]1CN(c2cc(-c3n[nH]c4ccc(OC5(C)CC5)cc34)ncn2)CCN1CCOCCOCCOc1ccc2c(c1)C(=O)N(C1CCC(=O)NC1=O)C2=O (some centres unmarked) [compound 3]
4. CC(C)Oc1ccc2[nH]nc(-c3cc(N4CCN(CCOCCC#CCN5CCN(c6ccc7c(c6)C(=O)N(C6CCC(=O)NC6=O)C7=O)CC5)[C@@H](C)C4)ncn3)c2c1 (some centres unmarked) [compound 34]

1: 50 to 70%; 2: 50 to 70%; 3: ≥ 70%; 4: ≥ 70%

---

Target: G2019S LRRK2 (Homo sapiens, UniProt Q5S007, G2019S)
Construct: expressed in transfected cells; host or cells: HEK293 (ATCC CRL-1573), transient transfection, ubiquitin promoter
Sequence (Q5S007 whole entry G2019S): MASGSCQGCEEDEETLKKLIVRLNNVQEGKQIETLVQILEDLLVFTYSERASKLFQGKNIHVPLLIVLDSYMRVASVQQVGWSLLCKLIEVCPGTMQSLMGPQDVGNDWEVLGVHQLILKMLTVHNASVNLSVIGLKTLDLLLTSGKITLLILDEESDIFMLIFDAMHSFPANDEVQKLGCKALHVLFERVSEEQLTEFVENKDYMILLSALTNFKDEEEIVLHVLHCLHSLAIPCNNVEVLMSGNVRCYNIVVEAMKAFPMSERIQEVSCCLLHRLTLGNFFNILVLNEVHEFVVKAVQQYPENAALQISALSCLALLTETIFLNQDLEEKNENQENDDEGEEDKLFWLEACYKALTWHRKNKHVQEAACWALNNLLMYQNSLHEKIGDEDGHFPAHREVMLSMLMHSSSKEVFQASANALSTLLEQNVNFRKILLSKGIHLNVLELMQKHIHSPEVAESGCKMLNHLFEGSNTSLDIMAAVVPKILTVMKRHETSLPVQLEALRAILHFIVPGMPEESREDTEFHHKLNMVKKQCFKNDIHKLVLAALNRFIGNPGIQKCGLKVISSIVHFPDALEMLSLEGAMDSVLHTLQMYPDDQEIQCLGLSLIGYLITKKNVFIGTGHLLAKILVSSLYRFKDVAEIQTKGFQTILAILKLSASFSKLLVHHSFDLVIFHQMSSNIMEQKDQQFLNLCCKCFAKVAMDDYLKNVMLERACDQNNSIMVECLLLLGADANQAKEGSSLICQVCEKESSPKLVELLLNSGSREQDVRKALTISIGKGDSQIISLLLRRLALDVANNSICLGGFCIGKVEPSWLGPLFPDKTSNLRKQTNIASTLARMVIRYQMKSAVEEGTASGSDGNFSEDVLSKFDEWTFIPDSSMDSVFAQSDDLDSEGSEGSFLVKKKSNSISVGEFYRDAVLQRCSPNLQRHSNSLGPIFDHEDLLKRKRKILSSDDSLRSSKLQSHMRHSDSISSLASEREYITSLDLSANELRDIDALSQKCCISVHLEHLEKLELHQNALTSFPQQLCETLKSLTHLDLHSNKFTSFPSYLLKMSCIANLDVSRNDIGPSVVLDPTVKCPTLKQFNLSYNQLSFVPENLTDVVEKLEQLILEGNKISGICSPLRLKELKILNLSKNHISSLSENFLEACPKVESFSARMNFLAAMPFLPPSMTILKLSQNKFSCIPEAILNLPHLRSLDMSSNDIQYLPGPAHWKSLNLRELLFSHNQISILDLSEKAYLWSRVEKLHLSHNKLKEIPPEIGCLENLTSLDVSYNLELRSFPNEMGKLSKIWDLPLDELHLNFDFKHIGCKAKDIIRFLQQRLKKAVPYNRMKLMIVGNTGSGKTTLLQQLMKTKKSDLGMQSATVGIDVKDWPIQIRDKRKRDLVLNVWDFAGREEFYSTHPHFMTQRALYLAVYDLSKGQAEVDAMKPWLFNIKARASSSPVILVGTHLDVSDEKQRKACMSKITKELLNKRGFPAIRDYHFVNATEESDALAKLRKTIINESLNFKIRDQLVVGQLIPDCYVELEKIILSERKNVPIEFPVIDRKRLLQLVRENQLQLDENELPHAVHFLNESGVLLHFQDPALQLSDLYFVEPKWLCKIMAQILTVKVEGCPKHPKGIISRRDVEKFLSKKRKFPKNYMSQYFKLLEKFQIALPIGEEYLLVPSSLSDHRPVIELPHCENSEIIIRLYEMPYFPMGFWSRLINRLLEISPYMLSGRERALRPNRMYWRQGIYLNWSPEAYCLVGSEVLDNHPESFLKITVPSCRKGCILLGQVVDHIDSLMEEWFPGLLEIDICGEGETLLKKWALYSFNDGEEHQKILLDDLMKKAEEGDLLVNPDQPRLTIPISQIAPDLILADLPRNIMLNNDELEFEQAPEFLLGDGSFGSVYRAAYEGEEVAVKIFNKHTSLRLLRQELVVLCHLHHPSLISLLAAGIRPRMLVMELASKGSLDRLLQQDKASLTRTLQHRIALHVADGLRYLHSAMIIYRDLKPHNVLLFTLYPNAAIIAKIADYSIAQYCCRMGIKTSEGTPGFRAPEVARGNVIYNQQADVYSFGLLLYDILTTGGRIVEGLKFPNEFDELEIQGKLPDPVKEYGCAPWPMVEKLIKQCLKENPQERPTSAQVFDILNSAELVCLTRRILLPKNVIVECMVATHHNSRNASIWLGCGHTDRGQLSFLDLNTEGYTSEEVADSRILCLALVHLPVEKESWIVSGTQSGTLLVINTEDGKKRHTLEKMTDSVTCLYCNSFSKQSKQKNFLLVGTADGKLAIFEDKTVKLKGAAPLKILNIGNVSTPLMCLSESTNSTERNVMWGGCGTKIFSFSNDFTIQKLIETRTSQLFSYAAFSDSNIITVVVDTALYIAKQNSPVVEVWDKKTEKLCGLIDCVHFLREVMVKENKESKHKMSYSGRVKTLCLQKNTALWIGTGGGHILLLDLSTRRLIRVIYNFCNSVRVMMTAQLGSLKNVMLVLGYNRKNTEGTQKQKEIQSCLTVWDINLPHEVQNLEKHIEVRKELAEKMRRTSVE
Test: LRRK2 degradation assay, G2019S LRRK2-HiBit expressed from plasmid in HEK293 cells
Format: cell-based
Details: HEK293 cells transfected with HiBit-tagged G2019S LRRK2, 24 hours compound incubation
metric: Dmax

Below, each entry is followed by its recorded Dmax result.
| molecule | Dmax |
| --- | --- |
| C[C@@H]1CN(c2cc(-c3n[nH]c4ccc(OC5(C)CC5)cc34)ncn2)C[C@H](C)N1CCOCCOCCOc1ccc2c(c1)C(=O)N(C1CCC(=O)NC1=O)C2=O (some centres unmarked) [compound 6] | 50 to 70% |
| CC(C)Oc1ccc2[nH]nc(-c3cc(N4CCN(CCN5CCN(CC6CCN(c7ccc8c(c7)C(=O)N(C7CCC(=O)NC7=O)C8=O)CC6)CC5)[C@@H](C)C4)ncn3)c2c1 (some centres unmarked) [compound 26] | ≥ 70% |
| CC(C)Oc1ccc2[nH]nc(-c3cc(N4CCN(CCCCN5CCN(c6ccc7c(c6)C(=O)N(C6CCC(=O)NC6=O)C7=O)CC5)[C@@H](C)C4)ncn3)c2c1 (some centres unmarked) [compound 23] | 50 to 70% |
| CC(C)Oc1ccc2[nH]nc(-c3cc(N4CCO[C@H](CN5CCN(CC6CCN(c7ccc8c(c7)C(=O)N(C7CCC(=O)NC7=O)C8=O)CC6)CC5)C4)ncn3)c2c1 (some centres unmarked) [compound 48] | 50 to 70% |

The record that follows has no Dmax shown yet.
get_value(item= C[C@H]1CN(c2cc(-c3n[nH]c4ccc(OC5(C)CC5)cc34)ncn2)CCN1CCOCCN1CCN(c2ccc3c(c2)C(=O)N(C2CCC(=O)NC2=O)C3=O)CC1 (some centres unmarked) [compound 20] , readout=Dmax) returns 50 to 70%

---

Target: wildtype LRRK2 (Homo sapiens, UniProt Q5S007)
Construct: expressed in transfected cells; host or cells: HEK293 (ATCC CRL-1573), transient transfection, ubiquitin promoter
Test: LRRK2 degradation assay, wildtype LRRK2-HiBit expressed from plasmid in HEK293 cells
Assay type: cell-based
Settings: HEK293 cells transfected with HiBit-tagged wildtype LRRK2, 24 hours compound incubation; read-out: *WT DC50
metric: DC50

Below, each entry is followed by its recorded DC50 result.
| compound | DC50 |
| --- | --- |
| C[C@H]1CN(c2cc(-c3n[nH]c4ccc(OC5(C)CC5)cc34)ncn2)CCN1CCOC1CCN(CC2CCN(c3ccc4c(c3)C(=O)N(C3CCC(=O)NC3=O)C4=O)CC2)CC1 (some centres unmarked) | 0.01 to 0.05 µM |
| C[C@H]1CN(c2cc(-c3n[nH]c4ccc(OC5(C)CC5)cc34)ncn2)CCN1CCOCCOCCOCCOc1ccc2c(c1)C(=O)N(C1CCC(=O)NC1=O)C2=O (some centres unmarked) | < 0.01 µM |

Take each entry in turn and give its DC50.
1. CC(C)Oc1ccc2[nH]nc(-c3cc(N4CCN(CCN5CC(OCCOc6ccc7c(c6)C(=O)N(C6CCC(=O)NC6=O)C7=O)C5)[C@@H](C)C4)ncn3)c2c1 (some centres unmarked)
2. C[C@H]1CN(c2cc(-c3n[nH]c4ccc(OC5(C)CC5)cc34)ncn2)CCN1CCN1CCC(CN2CCN(c3ccc4c(c3)C(=O)N(C3CCC(=O)NC3=O)C4=O)CC2)CC1 (some centres unmarked)
3. CC(C)Oc1ccc2[nH]nc(-c3cc(N4CCN(CCN5CC(CCN6CCN(c7ccc8c(c7)C(=O)N(C7CCC(=O)NC7=O)C8=O)CC6)C5)CC4)ncn3)c2c1 (centres unmarked)

1: ≥ 0.1 µM; 2: < 0.01 µM; 3: < 0.01 µM
